Measured Ki accompanies every entry in the list below.
TARGET_SYSTEM: P2Y purinoceptor 12 (Homo sapiens, UniProt Q9H244)
Sequence (Q9H244 whole entry): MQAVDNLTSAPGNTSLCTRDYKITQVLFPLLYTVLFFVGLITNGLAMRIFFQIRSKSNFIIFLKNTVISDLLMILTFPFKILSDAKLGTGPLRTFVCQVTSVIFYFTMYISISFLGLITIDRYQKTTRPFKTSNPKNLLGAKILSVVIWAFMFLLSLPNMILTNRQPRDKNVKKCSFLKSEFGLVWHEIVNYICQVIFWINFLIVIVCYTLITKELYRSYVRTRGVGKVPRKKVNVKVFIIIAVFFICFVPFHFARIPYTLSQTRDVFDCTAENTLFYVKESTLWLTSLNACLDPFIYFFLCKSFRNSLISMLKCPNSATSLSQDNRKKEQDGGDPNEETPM
ASSAY_PROCEDURE: Displacement of [33P]ADP from human recombinant P2Y12 receptor expressed in CHO cells
Answer in nM, number only, no unit symbol.

As a guide, the following entries are already answered.
>  <COMPOUND>
CCCCCOC(=O)N1CCN(C(=O)[C@H](CCC(=O)O)NC(=O)c2cc(OCCN)cc(-c3ccccc3)n2)CC1

>  <OUTPUT_UNIT>
nM

>  <Ki>
8.8

$$$$
>  <COMPOUND>
CCCCOC(=O)N1CCN(C(=O)[C@H](CCC(=O)O)NC(=O)c2cc(OC3CCN(C(=O)C(F)(F)F)CC3)cc(-c3ccccc3)n2)CC1

>  <OUTPUT_UNIT>
nM

>  <Ki>
12

$$$$
>  <COMPOUND>
CCCCOC(=O)N1CCN(C(=O)[C@H](CCC(=O)O)NC(=O)c2cc(NCCOC)cc(-c3ccccc3)n2)CC1

>  <OUTPUT_UNIT>
nM

>  <Ki>
2.4

$$$$
>  <COMPOUND>
CCCCOC(=O)N1CCN(C(=O)[C@H](CCC(=O)O)NC(=O)c2cc(OCC3CCCCN3)cc(-c3ccccc3)n2)CC1 (some centres not stated)

>  <OUTPUT_UNIT>
nM

>  <Ki>
11

$$$$
>  <COMPOUND>
CCCCCOC(=O)N1CCN(C(=O)[C@H](CCC(=O)O)NC(=O)c2cc(OC(=O)N3CCCCC3)cc(-c3ccccc3)n2)CC1

>  <OUTPUT_UNIT>
nM

>  <Ki>
11

$$$$

**Query** Entry CCOC(=O)N1CCN(C(=O)[C@H](CCC(=O)O)NC(=O)c2cc(OCCCCO)cc(-c3ccccc3)n2)CC1 , system P2Y purinoceptor 12 (Homo sapiens, UniProt Q9H244): what Ki was measured?
**Result** 132

**Query** // fetch P2Y purinoceptor 12 (Homo sapiens, UniProt Q9H244) Ki for CCCCOC(=O)N1CCN(C(=O)[C@H](CCC(=O)O)NC(=O)c2cc(OC(=O)N3CC[C@@H](OC)C3)cc(-c3ccccc3)n2)CC1
**Result** 1.5

###

TARGET_SYSTEM: P2Y purinoceptor 12 (Homo sapiens, UniProt Q9H244)
ASSAY_PROCEDURE: Displacement of [33P]ADP from human recombinant P2Y12 receptor expressed in CHO cells
Measured pKi of individual entries
Entry type: numeric. Quantity: pKi, the -log10 of concentration in molar units.

>  <MOLECULE>
CCCCCOC(=O)N1CCN(C(=O)[C@H](CCC(=O)O)NC(=O)c2cc(N3CCC(N(C)C)CC3)cc(-c3ccccc3)n2)CC1

>  <ASSAY_METRIC>
pKi

>  <QUANTITATIVE_READOUT>
7.66

$$$$
>  <MOLECULE>
CCCCCOC(=O)N1CCN(C(=O)[C@H](CCC(=O)O)NC(=O)c2cc(C(N)=O)cc(-c3ccccc3)n2)CC1

>  <ASSAY_METRIC>
pKi

>  <QUANTITATIVE_READOUT>
8.12

$$$$
>  <MOLECULE>
CCCCCOC(=O)N1CCN(C(=O)[C@H](CCC(=O)O)NC(=O)c2cc(NC(=O)N3CCC(COC)CC3)cc(-c3ccccc3)n2)CC1

>  <ASSAY_METRIC>
pKi

>  <QUANTITATIVE_READOUT>
7.37

$$$$
>  <MOLECULE>
O=C(O)CC[C@H](NC(=O)c1cccc(-c2ccccc2)n1)C(=O)N1CCN(C(=O)OC2CCCCC2)CC1

>  <ASSAY_METRIC>
pKi

>  <QUANTITATIVE_READOUT>
7.36

$$$$
>  <MOLECULE>
CCCCCOC(=O)N1CCN(C(=O)[C@H](CCC(=O)O)NC(=O)c2cc(OCC3CCN(C(C)=O)CC3)cc(-c3ccccc3)n2)CC1

>  <ASSAY_METRIC>
pKi

>  <QUANTITATIVE_READOUT>
8.89

$$$$
>  <MOLECULE>
CCCCCOC(=O)N1CCN(C(=O)[C@H](CCC(=O)O)NC(=O)c2cc(CCCCN(C)C)cc(-c3ccccc3)n2)CC1

>  <ASSAY_METRIC>
pKi

>  <QUANTITATIVE_READOUT>
8.48

$$$$
>  <MOLECULE>
CCCC(=O)N1CCN(C(=O)[C@H](CCC(=O)O)NC(=O)c2cccc(-c3ccccc3)n2)CC1

>  <ASSAY_METRIC>
pKi

>  <QUANTITATIVE_READOUT>
5.51

$$$$
>  <MOLECULE>
CCCCOC(=O)N1CCN(C(=O)[C@H](CCC(=O)O)NC(=O)c2cc(OCCC3CCCNC3)cc(-c3ccccc3)n2)CC1 (some centres undefined)

>  <ASSAY_METRIC>
pKi

>  <QUANTITATIVE_READOUT>
8.60

$$$$

**Query** Could you share which pKi value was measured for CCCCCOC(=O)N1CCN(C(=O)[C@H](CCC(=O)O)NC(=O)c2cc(OCC3CCN(C(C)C)CC3)cc(-c3ccccc3)n2)CC1 ?
**Result** 8.26

Reference source: ChEMBL document CHEMBL1157562
